Recorded % Inhibition, ratio FXIIa-alpha:Antibody 1:0.2, one value per entry.
TESTED_ON: T1, human Factor XIIa-alpha (human, UniProt P00748 20-615)
T1 sequence: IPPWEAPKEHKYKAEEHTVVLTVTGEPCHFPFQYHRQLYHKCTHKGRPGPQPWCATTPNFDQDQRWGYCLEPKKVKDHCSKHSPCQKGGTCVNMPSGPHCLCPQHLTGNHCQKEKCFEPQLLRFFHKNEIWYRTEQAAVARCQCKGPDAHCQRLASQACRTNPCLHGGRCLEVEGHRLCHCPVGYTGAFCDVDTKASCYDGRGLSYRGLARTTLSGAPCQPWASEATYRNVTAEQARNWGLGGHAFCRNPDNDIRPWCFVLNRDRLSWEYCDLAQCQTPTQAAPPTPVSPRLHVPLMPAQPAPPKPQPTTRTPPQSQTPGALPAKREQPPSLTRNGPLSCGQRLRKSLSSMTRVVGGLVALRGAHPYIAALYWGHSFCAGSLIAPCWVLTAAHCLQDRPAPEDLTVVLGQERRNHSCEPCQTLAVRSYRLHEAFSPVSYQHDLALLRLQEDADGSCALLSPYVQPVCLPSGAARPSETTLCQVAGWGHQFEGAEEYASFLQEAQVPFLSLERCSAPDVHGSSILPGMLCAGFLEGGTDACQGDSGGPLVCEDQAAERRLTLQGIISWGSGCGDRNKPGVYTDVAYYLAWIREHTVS
EXPERIMENT_NOTES: cell-based or functional assay

Worked set:
>  <BINDER>
VR24 (antibody, V domains shown) VH: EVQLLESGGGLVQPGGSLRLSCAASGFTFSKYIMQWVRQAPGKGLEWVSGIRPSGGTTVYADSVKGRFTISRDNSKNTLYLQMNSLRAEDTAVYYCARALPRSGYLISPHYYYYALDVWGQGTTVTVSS VL: QSVLTQPPSASGTPGQRVTISCSGSSEMTVHHYVYWYQQLPGTAPKLLIYSNNQRPSGVPDRFSGSKSGTSASLAISGLRSEDEADYYCAAWDASLRGVFGGGTKLTVLG

>  <RESULT>
67.3%

$$$$
>  <BINDER>
VR112 (antibody, V domains shown) VH: EVQLLESGGGLVQPGGSLRLSCAASGFTFSKYIMQWVRQAPGKGLEWVSGINVPVQGTVYADSVKGRFTISRDNSKNTLYLQMNSLRAEDTAVYYCARALPRSGYLISPHYYYYALDVWGQGTTVTVSS VL: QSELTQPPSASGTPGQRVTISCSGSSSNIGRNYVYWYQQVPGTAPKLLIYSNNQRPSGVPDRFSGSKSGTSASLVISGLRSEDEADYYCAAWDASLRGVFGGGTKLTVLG

>  <RESULT>
68.7%

$$$$
>  <BINDER>
VR110 (antibody, V domains shown) VH: EVQLLESGGGLVQPGGSLRLSCAASGFTFSKYIMQWVRQAPGKGLEWVSGIDMPTKGTVYADSVKGRFTISRDNSKNTLYLQMNSLRAEDTAVYYCARALPRSGYLISPHYYYYALDVWGQGTTVTVSS VL: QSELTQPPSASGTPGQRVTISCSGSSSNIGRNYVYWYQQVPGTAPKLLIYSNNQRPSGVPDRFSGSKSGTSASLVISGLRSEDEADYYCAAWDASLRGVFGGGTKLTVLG

>  <RESULT>
66.9%

$$$$

Now, please, on to the next binder.
Enquiry: Look up % Inhibition, ratio FXIIa-alpha:Antibody 1:0.2: VR115 (antibody, V domains shown) VH: EVQLLESGGGLVQPGGSLRLSCAASGFTFSKYIMQWVRQAPGKGLEWVSGIDIPTKGTVYADSVKGRFTISRDNSKNTLYLQMNSLRAEDTAVYYCARALPRSGYLISPHYYYYALDVWGQGTTVTVSS VL: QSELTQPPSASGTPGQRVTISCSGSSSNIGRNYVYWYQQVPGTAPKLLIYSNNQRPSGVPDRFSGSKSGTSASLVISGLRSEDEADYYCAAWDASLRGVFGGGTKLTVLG
Return: 72.8%
